Every entry's value here was drawn from ChEMBL document CHEMBL1201862.

Some compounds, each annotated with its measured GI50.
- Test system: COLO 205
- procedureSummary: NCI tumour cell line growth inhibition, 48 h
Activity calls are given as the source filed them. Rule as the data show it: active = GI50 up to about 1.1 µM and inactive = higher.

Sample answers from the record:
O=C(O)c1cc(CC2Cc3cc4c(cc3C2=O)CCC4)cc2c1CCC2 (stereo not given) ... > 100 µM (inactive)
CCOC(=O)C(Cc1c(-c2[nH]c3ccccc3c2CC(NC(=O)CNC(C)=O)C(=O)OCC)[nH]c2ccccc12)NC(=O)CNC(C)=O (stereo not given) ... 18.6 µM (inactive)
O=C1CS(=O)(=O)C(c2cccc(Oc3ccccc3)c2)N1c1cc(Cl)ccc1Cl (stereo not given) ... 30.2 µM (inactive)
Clc1ccc(CCn2cncn2)c(Cl)c1 ... > 100 µM (inactive)
CN(C(=O)C12C3C4C1C1C2C3C41C(=O)C(C)(C)C)C(C)(C)C (stereo not given) ... > 100 µM (inactive)

Note to self: GI50 recorded for CC1=NN(C(=O)CC(=O)NC(=O)/C=C\c2ccccc2)C(=O)C1/N=N/c1ccc([N+](=O)[O-])cc1 (stereo not given) was > 100 µM (inactive)

Note to self: GI50 recorded for Cc1cn([C@@H]2O[C@H](CO[Si](C)(C)C(C)(C)C)[C@]3(O[C@H]3C(=O)NO)[C@H]2O[Si](C)(C)C(C)(C)C)c(=O)[nH]c1=O was 1.76 µM (inactive)

Note to self: GI50 recorded for COc1cc2cc3c4c(cc(OC)c(OC)c4c2cc1OC)CCN3 was 22.6 µM (inactive)

Note to self: GI50 recorded for O=S1(=O)c2ccccc2N=C(c2ccccc2Cl)CC1c1ccc(F)cc1 (stereo not given) was 21.5 µM (inactive)

---

Some compounds, each annotated with its measured GI50.
- Test system: SF-539
- procedureSummary: NCI tumour cell line growth inhibition, 48 h
Active and inactive are the calls of the source. Rule as the data show it: active = GI50 up to about 1.1 µM and inactive = higher. Where a SMILES comes first, the peptide text is derived from it. The star is where a group is joined. Fmoc = O=C(OCC1c2ccccc2-c2ccccc21)*; OtBu = CC(C)(C)O*

Sample answers from the record:
Cc1[nH]n(-c2nc3c(c(=O)[nH]2)CCC3)c(=O)c1CCO ... > 100 µM (inactive)
COc1cc(C(C)=O)cc(C(=O)N(C(C)C)C(C)C)c1[Si](C)(C)C ... > 100 µM (inactive)
CCOC(=O)CCCSCCCC(=O)CCCSCCCC(=O)OCC ... > 100 µM (inactive)
O=C(Nc1ccc(S(=O)(=O)N[C@@H](C(=O)O)c2ccccc2)cc1)c1ccc(F)cc1 ... > 100 µM (inactive)
Clc1cc2nc(C3CCCO3)[nH]c2cc1Cl (stereo unspecified) ... > 100 µM (inactive)
O=c1/c(=C/c2ccc([N+](=O)[O-])o2)sc2n1[C@@H](c1ccc3c(c1)OCO3)C=C(c1cc(F)c(Cl)cc1Cl)N=2 ... 23.8 µM (inactive)
C=C(C(=O)O)[C@@H]1C[C@@H]2O[C@H]1CC(C)=CCC/C(C)=C/CC[C@@]2(C)O ... > 100 µM (inactive)
CC(C)C(NC(=O)OCC1c2ccccc2-c2ccccc21)C(=O)NC(CCC(=O)OC(C)(C)C)C(=O)OC(C)(C)C (stereo unspecified) (Fmoc-Val-Glu(OtBu)-OtBu; configuration not given here) ... 24.1 µM (inactive)
CN(CCCNC(=O)c1cn(C)c2c1ccc1cc(Cl)c(Cl)cc12)CCCNC(=O)c1cn(C)c2c1ccc1cc(Cl)c(Cl)cc12 ... 15.7 µM (inactive)
CC(C)(C)c1nc2c(o1)C(=O)c1ccccc1C2=O ... 1.12 µM (inactive)

Note to self: GI50 recorded for CC(=O)/C(=C/NC(=S)c1cccnc1)C(=O)Nc1ccccc1C was 30.9 µM (inactive)

Note to self: GI50 recorded for CC(=O)OC12c3ccccc3C(c3ccccc31)C1C(=O)N(c3ccccn3)C(=O)C12 (stereo unspecified) was > 100 µM (inactive)

Note to self: GI50 recorded for CC(c1ccccc1)N1CC(C)(c2ccccc2)N(O)C(c2ccccc2)C1C (stereo unspecified) was 5.73 µM (inactive)
